Tested on: KOPN-8
Test: Growth inhibition, Alamar Blue
Format: cell-based
Settings: Homo sapiens, 72 h; KOPN-8, B-ALL; 3 days
Structures can show the parent of a compound that is named as a salt.
RECORDED_METRIC: IC50 (µM)
Unit µM implied. Number only.

INPUT: Using the record for CN1CCN(c2ccc3nc(-c4c(N)c5ccsc5[nH]c4=O)[nH]c3c2)CC1 [Compound (I) tartrate] , report its IC50.
OUTPUT: 3.3

###

Test system: MOLT-4
Test: Growth inhibition, Alamar Blue
Type: cell-based
Conditions: Homo sapiens, 72 h; MOLT-4, T-ALL; 3 days
Structures can show the parent of a compound that is named as a salt.
RECORDED_METRIC: pIC50
For clarity, pIC50 is expressed as the negative log10 of concentration in mol/L.

INPUT: // returns reported pIC50 for input CN1CCN(c2ccc3nc(-c4c(N)c5ccsc5[nH]c4=O)[nH]c3c2)CC1 [Compound (I) tartrate]
OUTPUT: 5.80

###

Test system: SLP-76 Ser376 phosphorylation
Assay: Phospho-SLP-76 (Ser376) sandwich ELISA in anti-CD3 stimulated Jurkat E6.1 cells
Assay type: cell-based
Conditions: Homo sapiens, 3 hours pretreatment, anti-CD3 (OKT3) 5 μg/mL 15 minutes
Counter-ions that a name gives are not always drawn.
RECORDED_METRIC: EC50 (µM)
Your answer is read as µM, so omit the unit and give the number.

INPUT: State the recorded EC50 for this entry: CN1CCN(c2ccc3nc(-c4c(N)c5ccsc5[nH]c4=O)[nH]c3c2)CC1 [Compound (I) tartrate]
OUTPUT: 0.024

###

Molecular target: FLT3-ITD (internal tandem duplication) (Homo sapiens, UniProt P36888)
Sequence (P36888 1-993): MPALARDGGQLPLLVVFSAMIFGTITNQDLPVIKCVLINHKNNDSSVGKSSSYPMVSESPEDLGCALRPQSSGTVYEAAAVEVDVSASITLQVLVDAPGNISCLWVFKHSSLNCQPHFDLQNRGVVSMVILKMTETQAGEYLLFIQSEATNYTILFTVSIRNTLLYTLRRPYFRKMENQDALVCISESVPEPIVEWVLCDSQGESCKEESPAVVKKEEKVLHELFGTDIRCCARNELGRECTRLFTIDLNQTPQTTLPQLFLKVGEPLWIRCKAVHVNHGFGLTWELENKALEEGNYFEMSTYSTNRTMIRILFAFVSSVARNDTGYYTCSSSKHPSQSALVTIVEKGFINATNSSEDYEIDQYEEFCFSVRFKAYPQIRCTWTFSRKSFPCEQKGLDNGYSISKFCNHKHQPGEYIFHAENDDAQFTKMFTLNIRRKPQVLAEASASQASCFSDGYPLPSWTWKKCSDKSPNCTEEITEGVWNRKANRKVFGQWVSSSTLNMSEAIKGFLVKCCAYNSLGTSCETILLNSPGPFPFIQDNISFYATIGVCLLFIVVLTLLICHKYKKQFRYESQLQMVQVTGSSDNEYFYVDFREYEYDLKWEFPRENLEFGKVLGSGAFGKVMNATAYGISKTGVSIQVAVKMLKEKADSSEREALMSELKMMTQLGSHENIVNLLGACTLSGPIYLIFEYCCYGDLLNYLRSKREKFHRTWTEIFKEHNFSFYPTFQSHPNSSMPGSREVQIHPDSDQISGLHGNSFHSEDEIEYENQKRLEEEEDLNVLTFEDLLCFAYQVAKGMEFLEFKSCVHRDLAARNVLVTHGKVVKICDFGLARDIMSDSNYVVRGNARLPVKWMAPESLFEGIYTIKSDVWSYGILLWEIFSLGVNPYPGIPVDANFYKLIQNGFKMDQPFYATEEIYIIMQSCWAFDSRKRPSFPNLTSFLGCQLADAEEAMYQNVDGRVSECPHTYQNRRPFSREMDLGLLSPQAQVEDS
Assay: Radiometric HotSpot kinase assay, FLT3-ITD
Settings: ATP 30 μM; peptide substrate 20 μM
Where a name gives a salt, the structure may show the parent alone.
RECORDED_METRIC: IC50 (nM)
// units = nM; emit number, no label

INPUT: GET /values?readout=IC50&item= CN1CCN(c2ccc3nc(-c4c(N)c5ccsc5[nH]c4=O)[nH]c3c2)CC1 [Compound (I) tartrate]
OUTPUT: 0.13

###

Molecular target: FLT3 (Homo sapiens)
Counter-ions that a name gives are not always drawn.
RECORDED_METRIC: pIC50
# reply with the number alone; pIC50 is -log10 of concentration in mol/L

INPUT: Checklist item: pIC50 tested on FLT3 (Homo sapiens), entry CN1CCN(c2ccc3nc(-c4c(N)c5ccsc5[nH]c4=O)[nH]c3c2)CC1 [Compound (I) tartrate] , value?
OUTPUT: 10.37

###

Target: TAK1/MAP3K7 (Homo sapiens)
Sequence (O43318 1-303 limits assumed): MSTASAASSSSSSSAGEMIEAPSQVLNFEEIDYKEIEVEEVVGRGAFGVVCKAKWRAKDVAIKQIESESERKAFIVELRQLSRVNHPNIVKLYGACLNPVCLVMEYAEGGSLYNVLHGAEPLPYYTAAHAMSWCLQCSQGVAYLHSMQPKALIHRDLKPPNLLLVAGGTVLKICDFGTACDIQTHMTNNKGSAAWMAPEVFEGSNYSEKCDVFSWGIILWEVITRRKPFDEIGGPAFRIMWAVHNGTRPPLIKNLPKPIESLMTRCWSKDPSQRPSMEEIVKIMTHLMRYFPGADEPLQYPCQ
Experiment: Radiometric HotSpot kinase assay, TAK1
Conditions: ATP 20 μM; casein 1 mg/mL
Structures can show the parent of a compound that is named as a salt.
RECORDED_METRIC: pIC50
The scale used: pIC50 is minus the common logarithm of the concentration in molar units.

INPUT: Form field: reported pIC50 of CN1CCN(c2ccc3nc(-c4c(N)c5ccsc5[nH]c4=O)[nH]c3c2)CC1 [Compound (I) tartrate]
OUTPUT: 7.74

###

System: OCI-LY18
Assay: Growth inhibition, Alamar Blue
Type: cell-based
Conditions: Homo sapiens, 72 h; OCI-LY18, NHL, GCB-DLBCL; 3 days
Counter-ions that a name gives are not always drawn.
RECORDED_METRIC: IC50 (nM)
Kindly answer with a numeric value in nM, unit omitted.

INPUT: Return reported IC50; argument: CN1CCN(c2ccc3nc(-c4c(N)c5ccsc5[nH]c4=O)[nH]c3c2)CC1 [Compound (I) tartrate]
OUTPUT: 90

###

System: OCI-LY10
Experiment: Growth inhibition, Alamar Blue
Assay type: cell-based
Details: Homo sapiens, 72 h; OCI-LY10, NHL, ABC-DLBCL; 3 days
Counter-ions that a name gives are not always drawn.
RECORDED_METRIC: IC50 (nM)
Your answer is read as nM, so omit the unit and give the number.

INPUT: Sample CN1CCN(c2ccc3nc(-c4c(N)c5ccsc5[nH]c4=O)[nH]c3c2)CC1 [Compound (I) tartrate] — what was its IC50?
OUTPUT: 570

This collection of values is drawn from patent US20250049787A1.
